- test.target: human melanocortin receptor subtype 1 (hMC1-R) (human), Q01726
- Sequence (Q01726 whole entry): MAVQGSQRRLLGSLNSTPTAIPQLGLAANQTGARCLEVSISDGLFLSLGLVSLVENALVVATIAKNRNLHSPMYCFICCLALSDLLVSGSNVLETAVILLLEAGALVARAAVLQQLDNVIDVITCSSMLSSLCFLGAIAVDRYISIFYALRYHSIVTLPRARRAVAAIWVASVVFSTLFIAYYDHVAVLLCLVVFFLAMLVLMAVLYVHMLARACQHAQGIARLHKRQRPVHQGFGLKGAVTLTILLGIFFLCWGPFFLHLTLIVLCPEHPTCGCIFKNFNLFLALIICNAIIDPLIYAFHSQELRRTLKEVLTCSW
- experiment.summary: [125I]-NDP-α-MSH competition, membranes
Bridge positions count the residues as written; N and C are the ends. Square brackets hold non-standard residues; d marks the D form. Ends that are not written are not given here. Nle = CCCC[C@H](N)C(=O)O
readout.type: Ki (nM)
Numeric only. Scale: nM

1) LGC[dA]H[dF]RWC-NH2 (disulfide 3-9; also: hydantoin ring from C(O) with Leu1-Gly2) [Hydantoin(C(O)-(Leu-Gly))-c(Cys-D-Ala-His-D-Phe-Arg-Trp-Cys)-NH2]	19.3
2) IGC[dA]H[dF]RWC-NH2 (disulfide 3-9; also: hydantoin ring from C(O) with Ile1-Gly2) [Hydantoin(C(O)-(Ile-Gly))-c(Cys-D-Ala-His-D-Phe-Arg-Trp-Cys)-NH2]	11.6
3) GGC[dA]H[dF]RWC-NH2 (disulfide 3-9; also: hydantoin ring from C(O) with Gly1-Gly2) [Hydantoin(C(O)-(Gly-Gly))-c(Cys-D-Ala-His-D-Phe-Arg-Trp-Cys)-NH2]	20.9
4) Ac-FRC[dA]H[dF]RWC-NH2 (disulfide 3-9; SMILES CC(=O)N[C@@H](Cc1ccccc1)C(=O)N[C@@H](CCCNC(=N)N)C(=O)N[C@H]1CSSC[C@@H](C(N)=O)NC(=O)[C@H](Cc2c[nH]c3ccccc23)NC(=O)[C@H](CCCNC(=N)N)NC(=O)[C@@H](Cc2ccccc2)NC(=O)[C@H](Cc2c[nH]cn2)NC(=O)[C@@H](C)NC1=O) [Ac-Phe-Arg-c(Cys-D-Ala-His-D-Phe-Arg-Trp-Cys)-NH2]	1.48

Inquiry: Consider the binder [Nle]GC[dA]H[dF]RWC-NH2 (disulfide 3-9; also: N-terminal hydantoin: C(O) bridges X1 N-terminal N and G2 backbone N, bridge at N via C(O), other end not in the chain) [Hydantoin(C(O)-(Nle-Gly))-c(Cys-D-Ala-His-D-Phe-Arg-Trp-Cys)-NH2] and give its recorded Ki.
Reply text: 7.92

Inquiry: Consider the binder VGC[dA]H[dF]RWC-NH2 (disulfide 3-9; also: hydantoin ring from C(O) with Val1-Gly2) [Hydantoin(C(O)-(Val-Gly))-c(Cys-D-Ala-His-D-Phe-Arg-Trp-Cys)-NH2] and give its recorded Ki.
Reply text: 15.3

Inquiry: Consider the binder RGC[dA]H[dF]RWC-NH2 (disulfide 3-9; also: hydantoin ring: C(O) bridging Arg-Gly) [Hydantoin(C(O)-(Arg-Gly))-c(Cys-D-Ala-His-D-Phe-Arg-Trp-Cys)-NH2] and give its recorded Ki.
Reply text: 2.65

Inquiry: Consider the binder IC[dA]H[dF]RWC-NH2 (disulfide 2-8; also: hydantoin ring from C(O) with Ile1-Cys2) [c[Hydantoin(C(O)-(Ile-Cys))-D-Ala-His-D-Phe-Arg-Trp-Cys]-NH2] and give its recorded Ki.
Reply text: 53.4

FYI, the data here is from patent US20120135923A1.
